Origin of values: PubChem BioAssay (NCI)

- Tested on: CCRF-CEM leukemia
- test_method_notes: NCI tumour cell line growth inhibition, 48 h
readout_type: TGI

- compound: "CC(=O)C(CN(C)Cc1ccccc1)C(c1ccccc1)c1c(O)c2ccccc2oc1=O (stereo not given)"
  val: "> 100 µM"
- compound: "CC1C2CC(CC2O)C1(C)C (stereo not given)"
  val: "> 100 µM"
- compound: "CC(C)(C)OC(=O)N1CCCC1C(=O)NCCNc1ccc(NCCNC(=O)C2CCCN2C(=O)OC(C)(C)C)c2c1C(=O)c1ccccc1C2=O (stereo not given)"
  val: "> 100 µM"
- compound: "O=C1NC(=O)C(N2CCc3ccccc32)=C1c1ccc(Cl)cc1"
  val: "> 25 µM"
- compound: "CC(=O)N1N=C(c2ccc3ccccc3c2O)CC1c1ccc(Cl)cc1Cl (stereo not given)"
  val: "> 100 µM"
